The reported measurements were obtained from patent US20180194862A1.

target: T1, human mesothelin (human, UniProt Q13421 296-580, limits assumed); assay: SPR
T1 construct: also called Human MSLN
T1 sequence (Q13421 other isoform, or with tags, fused parts or gaps limits assumed): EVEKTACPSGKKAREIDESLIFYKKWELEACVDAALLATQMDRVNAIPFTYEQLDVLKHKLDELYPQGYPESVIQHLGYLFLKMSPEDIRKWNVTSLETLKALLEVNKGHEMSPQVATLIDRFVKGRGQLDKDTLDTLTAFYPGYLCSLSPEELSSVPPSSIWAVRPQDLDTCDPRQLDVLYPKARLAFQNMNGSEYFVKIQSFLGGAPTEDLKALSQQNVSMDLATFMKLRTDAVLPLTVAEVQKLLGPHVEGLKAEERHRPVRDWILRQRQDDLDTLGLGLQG
Could you please report measured kon for the items listed next?
Output spec: scalar in M⁻¹ s⁻¹, unitless text.

[Q] For the binder HuAM1 (antibody, V domains shown, fully human antibody) VH: EVQLVQSGAEVKKPGASVKVSCKASGDTFKRYYVQWVRQAPGQGLEWMGIINPSGVSTTYAQKFQGRVTMTRDTSTSTVYMELSSLRSEDTAVYYCAESRGSGYNYFAMDVWGQGTLVTVSS VL: SYELTQPPSVSVSPGQTASITCSGDKLGDKYASWYQQKPGQSPVLVIYQDNRRPSGIPERFSGSNSGNTATLTISGTQAMDEADYYCQAWDSDTYVFGTGTKVTVL , give its reported kon.
[A] 19000

[Q] Give the measured kon for HuAM15 (antibody, V domains shown, fully human antibody) VH: EVQLVQSGAEVKKPGASVKVSCKASGDTFKRYYVHWVRQAPGQGLEWMGIINPSGVSTTYAQKFQGRVTMTRDTSTSTVYMELSSLRSEDTAVYYCAEVRGSGFNYFGMDVWGQGTLVTVSS VL: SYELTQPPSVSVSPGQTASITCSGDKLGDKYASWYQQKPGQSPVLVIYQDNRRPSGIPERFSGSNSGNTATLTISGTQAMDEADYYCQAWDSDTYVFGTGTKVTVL
[A] 44000
